MIC, Vibrio cholerae SG24 (1), per-entry values.
Write down the numeric answer in µg/mL and omit the unit.

Entry under review: COC(=O)C1=CO[C@@H](O)[C@@H]2C(COC(=O)C3=CO[C@@H](O)[C@@H]4C(COC(C)=O)=CC[C@H]34)=CC[C@H]12 [Compound 1, canthiumoside 1] . Reported MIC? 64

And for COC(=O)C1=COC(OC2OC(CO)C(O)C(O)C2O)C2C1CCC2(C)O (stereo not drawn) [Compound 8, mussaenoside] ? 256

And for COC(=O)C1=CO[C@@H](O[C@@H]2O[C@H](CO)[C@@H](O)[C@H](O)[C@H]2O)[C@H]2[C@@H]1[C@H](O)C[C@]2(C)O [Compound 9, shanzhiside methyl ester] ? 128

And for COC(=O)C1=COC(O)C2C(COC(=O)C3=COC(OC4OC(CO)C(O)C(O)C4O)C4C(COC(C)=O)=CCC34)=CCC12 (stereo not drawn) [Compound 2, canthiumoside 2] ? 256

And for COC(=O)C1=CO[C@@H](O)[C@H]2[C@@H]1CC[C@]2(C)O [compound 7] ? 32

And for COC(=O)C1=COC(OC2OC(CO)C(O)C(O)C2O)C2C(COC(=O)C3=COC(OC(C)=O)C4C(C)CCC34)=CCC12 (stereo not drawn) [Compound 5a, canthiumoside 5a] ? 256

---

- System: Vibrio cholerae NB2
- Method summary: Broth microdilution MIC/MBC
- Assay type: cell-based
- Stated conditions: Vibrio cholerae, NB2, 24 h
Please respond with reported MIC for every item in the list.
Write down the numeric answer in µg/mL and omit the unit.

What MIC appears in the records for this compound with Vibrio cholerae NB2? COC(=O)C1=CO[C@@H](O[C@@H]2O[C@H](CO)[C@@H](O)[C@H](O)[C@H]2O)[C@H]2[C@@H]1[C@H](O)C[C@]2(C)O [Compound 9, shanzhiside methyl ester] 128

And for COC(=O)C1=COC(OC2OC(CO)C(O)C(O)C2O)C2C(COC(=O)C3=COC(OC4OC(CO)C(O)C(O)C4O)C4C(COC(C)=O)=CCC34)=CCC12 (stereo not drawn) [Compound 3, canthiumoside 3] ? 256

And for COC(=O)C1=COC(O)C2C(COC(=O)C3=COC(OC4OC(CO)C(O)C(O)C4O)C4C(COC(C)=O)=CCC34)=CCC12 (stereo not drawn) [Compound 2, canthiumoside 2] ? 128

And for COC(=O)C1=CO[C@@H](O)[C@@H]2C(COC(=O)C3=CO[C@@H](O)[C@@H]4C(COC(C)=O)=CC[C@H]34)=CC[C@H]12 [Compound 1, canthiumoside 1] ? 64

And for COC(=O)C1=COC(OC2OC(CO)C(O)C(O)C2O)C2C1CCC2(C)O (stereo not drawn) [Compound 8, mussaenoside] ? 128

And for COC(=O)C1=CO[C@@H](O)[C@H]2[C@@H]1[C@H](O)C[C@]2(C)O [compound 6] ? 256

And for COC(=O)C1=CO[C@@H](O)[C@H]2[C@@H]1CC[C@]2(C)O [compound 7] ? 32

And for COC(=O)C1=COC(OC2OC(CO)C(O)C(O)C2O)C2C(COC(=O)C3=COC(OC(C)=O)C4C(C)CCC34)=CCC12 (stereo not drawn) [Compound 5a, canthiumoside 5a] ? 128

---

- Test system: Staphylococcus aureus ATCC 25923
- Method summary: microbe, parasite or virus in culture
- Type: cell-based
- Stated conditions: Staphylococcus aureus, ATCC25923, 24 h
The threshold is 30 µg/mL. Values of MIC beneath it are tagged 1; values meeting or exceeding it are tagged 0.

# strict comparison: is reported MIC < 30 µg/mL? input = COC(=O)C1=CO[C@@H](O)[C@H]2[C@@H]1CC[C@]2(C)O [compound 7] 1

And for CC1(C)S[C@@H]2[C@H](NC(=O)[C@H](N)c3ccccc3)C(=O)N2[C@H]1C(=O)O [Ampicillin, reference compound] ? 1

And for COC(=O)C1=COC(OC2OC(CO)C(O)C(O)C2O)C2C1CCC2(C)O (stereo not drawn) [Compound 8, mussaenoside] ? 0

And for COC(=O)C1=CO[C@@H](O)[C@@H]2C(COC(=O)C3=CO[C@@H](O)[C@@H]4C(COC(C)=O)=CC[C@H]34)=CC[C@H]12 [Compound 1, canthiumoside 1] ? 0

And for COC(=O)C1=COC(OC2OC(CO)C(O)C(O)C2O)C2C(COC(=O)C3=COC(OC(C)=O)C4C(C)CCC34)=CCC12 (stereo not drawn) [Compound 5a, canthiumoside 5a] ? 0

And for COC(=O)C1=COC(O)C2C(COC(=O)C3=COC(OC4OC(CO)C(O)C(O)C4O)C4C(COC(C)=O)=CCC34)=CCC12 (stereo not drawn) [Compound 2, canthiumoside 2] ? 0

And for COC(=O)C1=COC(OC2OC(CO)C(O)C(O)C2O)C2C(COC(=O)C3=COC(OC4OC(CO)C(O)C(O)C4O)C4C(COC(C)=O)=CCC34)=CCC12 (stereo not drawn) [Compound 3, canthiumoside 3] ? 0

And for COC(=O)C1=CO[C@@H](O[C@@H]2O[C@H](CO)[C@@H](O)[C@H](O)[C@H]2O)[C@H]2[C@@H]1[C@H](O)C[C@]2(C)O [Compound 9, shanzhiside methyl ester] ? 0

And for COC(=O)C1=CO[C@@H](O)[C@H]2[C@@H]1[C@H](O)C[C@]2(C)O [compound 6] ? 0

---

- System: Vibrio cholerae PC2
- Method summary: Broth microdilution MIC/MBC
- Type: cell-based
- Stated conditions: Vibrio cholerae, PC2
Please respond with reported MBC for every item in the list.
Write down the numeric answer in µg/mL and omit the unit.

Entry under review: COC(=O)C1=COC(OC2OC(CO)C(O)C(O)C2O)C2C(COC(=O)C3=COC(OC(C)=O)C4C(C)CCC34)=CCC12 (stereo not drawn) [Compound 5a, canthiumoside 5a] . Reported MBC? 256

And for COC(=O)C1=COC(OC2OC(CO)C(O)C(O)C2O)C2C1CCC2(C)O (stereo not drawn) [Compound 8, mussaenoside] ? 256

And for COC(=O)C1=CO[C@@H](O)[C@@H]2C(COC(=O)C3=CO[C@@H](O)[C@@H]4C(COC(C)=O)=CC[C@H]34)=CC[C@H]12 [Compound 1, canthiumoside 1] ? 64

And for "COC(=O)C1=CO[C@@H](O)[C@H]2[C@@H]1[C@H](O)C[C@]2(C)O" ? 256

And for COC(=O)C1=CO[C@@H](O[C@@H]2O[C@H](CO)[C@@H](O)[C@H](O)[C@H]2O)[C@H]2[C@@H]1[C@H](O)C[C@]2(C)O [Compound 9, shanzhiside methyl ester] ? 256

---

- Tested on: Shigella flexneri SDINT
- Method summary: microbe, parasite or virus in culture
- Type: cell-based
- Stated conditions: Shigella flexneri
Please respond with reported MBC for every item in the list.
Write down the numeric answer in µg/mL and omit the unit.

What MBC appears in the records for this molecule with Shigella flexneri SDINT? "COC(=O)C1=CO[C@@H](O)[C@H]2[C@@H]1CC[C@]2(C)O" 16

And for COC(=O)C1=CO[C@@H](O[C@@H]2O[C@H](CO)[C@@H](O)[C@H](O)[C@H]2O)[C@H]2[C@@H]1[C@H](O)C[C@]2(C)O [Compound 9, shanzhiside methyl ester] ? 256

And for COC(=O)C1=CO[C@@H](O)[C@@H]2C(COC(=O)C3=CO[C@@H](O)[C@@H]4C(COC(C)=O)=CC[C@H]34)=CC[C@H]12 [Compound 1, canthiumoside 1] ? 64

And for COC(=O)C1=COC(OC2OC(CO)C(O)C(O)C2O)C2C(COC(=O)C3=COC(OC(C)=O)C4C(C)CCC34)=CCC12 (stereo not drawn) [Compound 5a, canthiumoside 5a] ? 128

And for COC(=O)C1=COC(O)C2C(COC(=O)C3=COC(OC4OC(CO)C(O)C(O)C4O)C4C(COC(C)=O)=CCC34)=CCC12 (stereo not drawn) [Compound 2, canthiumoside 2] ? 256

And for COC(=O)C1=COC(OC2OC(CO)C(O)C(O)C2O)C2C1CCC2(C)O (stereo not drawn) [Compound 8, mussaenoside] ? 256

And for "COC(=O)C1=CO[C@@H](O)[C@H]2[C@@H]1[C@H](O)C[C@]2(C)O" ? 64
